# experimental target: USP7 (Homo sapiens)
# Sequence (Q93009 whole entry, species assumed): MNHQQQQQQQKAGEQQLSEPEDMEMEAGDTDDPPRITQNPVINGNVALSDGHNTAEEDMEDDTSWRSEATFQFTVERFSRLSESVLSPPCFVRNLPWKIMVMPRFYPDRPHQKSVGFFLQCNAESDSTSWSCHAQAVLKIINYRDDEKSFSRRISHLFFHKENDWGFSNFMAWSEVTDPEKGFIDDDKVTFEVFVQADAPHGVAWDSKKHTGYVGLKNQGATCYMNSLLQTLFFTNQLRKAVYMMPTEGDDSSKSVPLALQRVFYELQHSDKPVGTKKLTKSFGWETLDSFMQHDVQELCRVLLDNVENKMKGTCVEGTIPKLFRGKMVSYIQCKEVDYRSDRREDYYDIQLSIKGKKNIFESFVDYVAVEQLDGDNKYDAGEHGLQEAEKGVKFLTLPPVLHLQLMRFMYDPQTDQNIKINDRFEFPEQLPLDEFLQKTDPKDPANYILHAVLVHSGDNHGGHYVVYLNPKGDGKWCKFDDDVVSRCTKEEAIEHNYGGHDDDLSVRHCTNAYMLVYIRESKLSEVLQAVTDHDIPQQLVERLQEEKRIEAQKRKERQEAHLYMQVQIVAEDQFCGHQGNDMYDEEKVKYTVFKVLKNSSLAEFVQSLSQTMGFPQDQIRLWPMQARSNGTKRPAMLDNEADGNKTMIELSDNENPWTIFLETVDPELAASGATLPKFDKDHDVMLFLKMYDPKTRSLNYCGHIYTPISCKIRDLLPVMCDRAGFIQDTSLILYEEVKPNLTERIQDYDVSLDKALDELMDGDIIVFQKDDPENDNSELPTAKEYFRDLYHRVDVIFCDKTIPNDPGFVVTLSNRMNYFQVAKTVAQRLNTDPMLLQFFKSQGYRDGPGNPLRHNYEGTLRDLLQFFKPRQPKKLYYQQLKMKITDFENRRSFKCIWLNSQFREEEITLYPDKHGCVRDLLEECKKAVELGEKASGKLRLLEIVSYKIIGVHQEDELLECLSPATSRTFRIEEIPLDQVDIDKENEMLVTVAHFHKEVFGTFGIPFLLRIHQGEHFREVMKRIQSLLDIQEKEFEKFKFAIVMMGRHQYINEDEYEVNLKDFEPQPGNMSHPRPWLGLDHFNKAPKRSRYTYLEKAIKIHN
# experimental details: DUB/cathepsin selectivity biochemical assay
pIC50: −log10 of the molar value.
attribute measured: pIC50

In [3]: df
Out[3]:
                                chem_smiles  experimental_target  value_reported
0  C[C@@H]1[C@H]2CCN(C(=O)c3ncc(-c4ccnc(C#N)c4)o3)[C@H]2CN1C#N  USP7 (Homo sapiens)          < 3.52

###

# experimental target: USP2 (Homo sapiens, UniProt O75604)
# Sequence (O75604 1-605): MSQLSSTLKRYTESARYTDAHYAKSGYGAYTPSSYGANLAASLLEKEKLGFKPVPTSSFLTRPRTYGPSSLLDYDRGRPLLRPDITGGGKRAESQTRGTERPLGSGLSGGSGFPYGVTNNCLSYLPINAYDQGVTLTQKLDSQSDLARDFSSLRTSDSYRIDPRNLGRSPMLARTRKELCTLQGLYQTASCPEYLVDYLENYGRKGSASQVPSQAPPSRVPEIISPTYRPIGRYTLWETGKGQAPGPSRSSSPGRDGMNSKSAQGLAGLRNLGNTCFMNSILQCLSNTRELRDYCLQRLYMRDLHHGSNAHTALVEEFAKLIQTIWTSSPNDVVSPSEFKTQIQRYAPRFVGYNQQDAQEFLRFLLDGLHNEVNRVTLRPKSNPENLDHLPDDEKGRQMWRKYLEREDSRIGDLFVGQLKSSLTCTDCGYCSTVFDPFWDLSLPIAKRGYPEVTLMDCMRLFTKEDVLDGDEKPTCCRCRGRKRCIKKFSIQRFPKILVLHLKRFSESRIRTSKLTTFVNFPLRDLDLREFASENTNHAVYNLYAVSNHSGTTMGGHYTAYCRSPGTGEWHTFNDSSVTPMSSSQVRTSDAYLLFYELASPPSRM
# experimental details: DUB/cathepsin selectivity biochemical assay
# study conditions: Supplementary Fig. 6a; read-out: Selectivity vs DUBs (IC50), USP2
pIC50: −log10 of the molar value.
attribute measured: pIC50

>>> print(df.to_string())
                                   compound  value_reported
0  C[C@@H]1[C@H]2CCN(C(=O)c3ncc(-c4ccnc(C#N)c4)o3)[C@H]2CN1C#N [MTX115325]            4.60
